Reference for the values: paper PMC8438848

# target entity: HLA-A03:01 (Homo sapiens, UniProt P04439)
# Sequence (P04439 25-299 limits assumed): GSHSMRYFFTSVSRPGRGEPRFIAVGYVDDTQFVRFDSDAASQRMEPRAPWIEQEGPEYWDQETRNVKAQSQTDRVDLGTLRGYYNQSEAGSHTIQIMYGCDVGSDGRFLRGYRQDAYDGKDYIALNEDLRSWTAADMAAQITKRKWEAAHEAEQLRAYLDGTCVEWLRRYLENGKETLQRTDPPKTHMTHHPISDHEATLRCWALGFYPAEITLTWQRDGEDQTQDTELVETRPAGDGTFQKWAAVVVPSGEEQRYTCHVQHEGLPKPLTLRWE
# Sequence (P61769 21-119 partner): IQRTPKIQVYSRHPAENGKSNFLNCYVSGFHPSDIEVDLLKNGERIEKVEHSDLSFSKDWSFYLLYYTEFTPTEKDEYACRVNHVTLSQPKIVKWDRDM
# protocol description: IC50 in vitro measurement, peptide exchange assay with fluorescence anisotropy
Ends that are not written are not given here.
Known IC50 of a selection of sequences
Hi, when you answer, please include the unit after the number. Thanks!

Look over these answered cases.
>  <residue codes>
RLFPGLAIK [KIF2C^WT]

>  <target entity>
HLA-A03:01 (Homo sapiens, UniProt P04439)

>  <IC50>
146 nM

$$$$
>  <residue codes>
RLFLGLAIK [KIF2C^P13L]

>  <target entity>
HLA-A03:01 (Homo sapiens, UniProt P04439)

>  <IC50>
237 nM

$$$$
>  <residue codes>
KLILWRGLK [NCAPG2^P333L]

>  <target entity>
HLA-A03:01 (Homo sapiens, UniProt P04439)

>  <IC50>
203 nM

$$$$

Continue with the sequence presented below.
// lookup IC50 for KPILWRGLK [NCAPG2^WT]
4490 nM
